biological target: Sodium- and chloride-dependent GABA transporter 1 (Homo sapiens, UniProt P30531); test: Inhibition of GAT-1 (unknown origin) expressed in african green monkey COS7 cells using [3H]-GABA as substrate after 10 mins by scintillation counting; assay type: cell-based, COS-7
Sequence (P30531 whole entry): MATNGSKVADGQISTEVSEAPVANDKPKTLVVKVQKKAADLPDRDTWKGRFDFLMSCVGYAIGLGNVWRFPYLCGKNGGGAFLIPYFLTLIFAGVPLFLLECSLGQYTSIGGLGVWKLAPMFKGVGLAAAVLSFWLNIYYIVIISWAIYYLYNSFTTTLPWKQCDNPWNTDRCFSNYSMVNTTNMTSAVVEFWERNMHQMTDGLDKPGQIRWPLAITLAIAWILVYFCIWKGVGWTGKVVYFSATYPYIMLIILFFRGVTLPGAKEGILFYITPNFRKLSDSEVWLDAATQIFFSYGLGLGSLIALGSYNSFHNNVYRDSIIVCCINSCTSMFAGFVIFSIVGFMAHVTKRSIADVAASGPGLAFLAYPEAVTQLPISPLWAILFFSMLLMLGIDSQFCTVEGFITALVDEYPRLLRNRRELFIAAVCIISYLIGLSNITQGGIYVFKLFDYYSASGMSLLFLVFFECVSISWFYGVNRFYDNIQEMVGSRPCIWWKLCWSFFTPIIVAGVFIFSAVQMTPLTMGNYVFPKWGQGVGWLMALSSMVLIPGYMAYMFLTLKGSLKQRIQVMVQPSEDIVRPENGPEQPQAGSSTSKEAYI
Measured endpoint: pIC50
Answers are plain numbers, as −log10 of the molar value.

Entry under test: O=C1OC[C@H](Cc2ccc3c(c2)OCO3)[C@H]1Cc1ccc2c(c1)OCO2 . Its pIC50 was 4.69

###

Target: Excitatory amino acid transporter 3 (Homo sapiens, UniProt P43005)
Sequence (P43005 whole entry): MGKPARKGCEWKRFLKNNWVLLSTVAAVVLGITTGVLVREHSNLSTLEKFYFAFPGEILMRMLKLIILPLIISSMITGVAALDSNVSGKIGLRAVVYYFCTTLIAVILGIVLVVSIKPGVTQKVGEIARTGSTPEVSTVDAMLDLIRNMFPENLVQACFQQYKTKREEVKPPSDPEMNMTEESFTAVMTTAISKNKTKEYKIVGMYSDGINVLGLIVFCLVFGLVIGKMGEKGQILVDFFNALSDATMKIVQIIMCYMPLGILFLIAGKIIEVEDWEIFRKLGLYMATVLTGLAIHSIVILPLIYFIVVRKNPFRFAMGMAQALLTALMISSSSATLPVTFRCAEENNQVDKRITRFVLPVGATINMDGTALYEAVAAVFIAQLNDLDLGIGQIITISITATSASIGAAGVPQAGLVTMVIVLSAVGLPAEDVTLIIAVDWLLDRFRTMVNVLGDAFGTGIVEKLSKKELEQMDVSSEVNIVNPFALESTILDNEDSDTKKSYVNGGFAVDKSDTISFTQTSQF
Test: Inhibition of EAAT3 (unknown origin) expressed in african green monkey COS7 cells using [3H]-glutamic acid as substrate after 10 mins by scintillation counting
Measured endpoint: IC50

Sure, the documented IC50 for O=C1OC[C@H](Cc2ccc3c(c2)OCO3)[C@H]1Cc1ccc2c(c1)OCO2 is > 500 µM

###

target: Excitatory amino acid transporter 2 (Homo sapiens); experiment: Inhibition of EAAT2 (unknown origin) expressed in african green monkey COS7 cells using [3H]-glutamic acid as substrate after 10 mins by scintillation counting; assay type: cell-based, COS-7
pIC50: −log10 of the molar value.
Measured endpoint: pIC50

get_value(item= O=C1OC[C@H](Cc2ccc3c(c2)OCO3)[C@H]1Cc1ccc2c(c1)OCO2 , readout=pIC50) returns < 4.00

These measurements were taken from ChEMBL document CHEMBL2429840.
